SYSTEM UNDER TEST: T1, soluble cynomolgus TNFR2 (cynomolgus, UniProt A0A2K5VET2 132-366)
T1 sequence: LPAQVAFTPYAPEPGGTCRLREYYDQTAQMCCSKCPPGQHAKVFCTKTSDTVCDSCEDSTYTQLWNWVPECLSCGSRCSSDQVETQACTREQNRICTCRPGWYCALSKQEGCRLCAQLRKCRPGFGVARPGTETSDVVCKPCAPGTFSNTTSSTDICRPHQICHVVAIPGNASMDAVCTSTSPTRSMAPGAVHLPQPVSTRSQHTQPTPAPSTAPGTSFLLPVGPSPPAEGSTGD
EXPERIMENT NOTES: competition ELISA: plate-bound soluble cynomolgus TNFR2, competitor biotinylated TNFα, streptavidin-HRP, A450
MEASUREMENT LABEL: IC50

Task: Provide only the value of recorded IC50 for SBT-002 (antibody, V domains shown, Parental mouse antibody; also called mouse SBT-002) VH: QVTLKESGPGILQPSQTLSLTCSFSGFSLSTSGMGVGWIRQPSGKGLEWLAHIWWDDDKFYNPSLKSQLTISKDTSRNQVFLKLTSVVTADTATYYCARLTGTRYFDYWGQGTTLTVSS VL: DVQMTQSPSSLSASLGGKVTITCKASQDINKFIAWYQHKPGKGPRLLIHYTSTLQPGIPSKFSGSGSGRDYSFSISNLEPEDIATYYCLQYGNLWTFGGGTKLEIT
Output: 19.6 nM
